# key: entry, value: ratio of amounts bound (vs GLS3000)
# TEST SYSTEM: CD3ε homodimer protein (human, UniProt P07766 23-126, limits assumed)
# Sequence (P07766 23-126 limits assumed): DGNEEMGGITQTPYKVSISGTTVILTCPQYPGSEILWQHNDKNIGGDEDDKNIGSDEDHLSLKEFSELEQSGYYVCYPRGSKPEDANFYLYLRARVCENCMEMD
# METHOD: SPR, immobilized CD3ε homodimer;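 also: biacore T200 surface plasmon resonance at 25 °C, antibody variants flowed as analytes over amine-coupled CD3ε homodimer on a CM4 chip, variant binding amount divided by that of GLS3000 antibody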
Keep the answer to the number alone.

Worked cases, answers included:
| BINDER | ratio of amounts bound (vs GLS3000) |
| --- | --- |
| GLS3000 S27aI (antibody, name in Kabat numbering, V domains shown, one-arm format as m2) VH: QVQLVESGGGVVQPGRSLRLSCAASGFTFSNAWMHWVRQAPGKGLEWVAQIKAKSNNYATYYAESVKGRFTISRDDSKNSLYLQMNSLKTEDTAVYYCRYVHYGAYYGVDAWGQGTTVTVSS VL: DIVMTQSPLSLPVTPGEPASISCRSSQILVHSNRNTYLHWYQQKPGQAPRLLIYKVSNRFSGVPDRFSGSGSGTDFTLKISRVEAEDVGVYYCGQGTQVPYTFGQGTKLEIK | 1 |
| GLS3000 S27eM (antibody, name in Kabat numbering, V domains shown, one-arm format as m2) VH: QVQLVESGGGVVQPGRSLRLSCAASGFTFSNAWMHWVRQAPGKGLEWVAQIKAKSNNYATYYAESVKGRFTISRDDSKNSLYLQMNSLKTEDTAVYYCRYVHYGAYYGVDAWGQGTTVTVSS VL: DIVMTQSPLSLPVTPGEPASISCRSSQSLVHMNRNTYLHWYQQKPGQAPRLLIYKVSNRFSGVPDRFSGSGSGTDFTLKISRVEAEDVGVYYCGQGTQVPYTFGQGTKLEIK | 1.23 |
| GLS3000 N30I (antibody, name in Kabat numbering, V domains shown, one-arm format as m2) VH: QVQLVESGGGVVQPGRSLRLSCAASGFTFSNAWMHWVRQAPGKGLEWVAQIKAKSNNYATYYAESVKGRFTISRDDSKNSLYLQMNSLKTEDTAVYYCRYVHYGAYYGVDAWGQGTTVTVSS VL: DIVMTQSPLSLPVTPGEPASISCRSSQSLVHSNRITYLHWYQQKPGQAPRLLIYKVSNRFSGVPDRFSGSGSGTDFTLKISRVEAEDVGVYYCGQGTQVPYTFGQGTKLEIK | 0.61 |
| GLS3000 V27cI (antibody, name in Kabat numbering, V domains shown, one-arm format as m2) VH: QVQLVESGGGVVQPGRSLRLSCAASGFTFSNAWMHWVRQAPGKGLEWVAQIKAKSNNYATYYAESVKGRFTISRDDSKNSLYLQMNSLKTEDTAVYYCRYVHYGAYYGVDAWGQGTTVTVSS VL: DIVMTQSPLSLPVTPGEPASISCRSSQSLIHSNRNTYLHWYQQKPGQAPRLLIYKVSNRFSGVPDRFSGSGSGTDFTLKISRVEAEDVGVYYCGQGTQVPYTFGQGTKLEIK | 0.96 |

// switching to the query binder
For GLS3000 S27eY (antibody, name in Kabat numbering, V domains shown, one-arm format as m2) VH: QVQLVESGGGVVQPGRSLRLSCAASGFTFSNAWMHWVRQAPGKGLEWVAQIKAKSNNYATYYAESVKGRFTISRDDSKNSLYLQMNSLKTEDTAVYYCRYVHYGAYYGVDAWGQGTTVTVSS VL: DIVMTQSPLSLPVTPGEPASISCRSSQSLVHYNRNTYLHWYQQKPGQAPRLLIYKVSNRFSGVPDRFSGSGSGTDFTLKISRVEAEDVGVYYCGQGTQVPYTFGQGTKLEIK the binder record lists ratio of amounts bound (vs GLS3000) as 1.2
